Assay: in vivo
Settings: mouse, in vivo, iv, 30 mg/kg
Protocol: Mouse pharmacokinetic studies were conducted by using female CD-1 mice for compounds 1, 11, and 12, while BALB/c mice were used for compound 13. […] Antibiotic concentrations in the plasma samples were analyzed by liquid chromatography-tandem mass spectrometry (LC-MS/MS). […] The limit of quantitation (LOQ) was 1 or 2 ng/ml. […]
assay metric: Cmax (ng/mL)

>>> measured_number("CCOc1ccc(F)c2c1B(O)O[C@@H]2CN")
13700
>>> measured_number("CCOc1cccc2c1B(O)O[C@@H]2CN")
8900
>>> measured_number("CCOc1ccc(Br)c2c1B(O)O[C@@H]2CN")
17100
>>> measured_number("CCOc1ccc(Cl)c2c1B(O)O[C@@H]2CN")
13600

----------
The entries below are paired with their reported clearance.
test: in vivo; conditions: mouse, in vivo, iv, 30 mg/kg
assay metric: clearance (mL/min/kg)

>>> measured_number("CCOc1cccc2c1B(O)O[C@@H]2CN")
36.3
>>> measured_number("CCOc1ccc(Cl)c2c1B(O)O[C@@H]2CN")
9.7
>>> measured_number("CCOc1ccc(F)c2c1B(O)O[C@@H]2CN")
18.6
>>> measured_number("CCOc1ccc(Br)c2c1B(O)O[C@@H]2CN")
11.4

----------
target: M. tuberculosis LeuRS editing domain (Mycobacterium tuberculosis); test: biochemical; type: binding; conditions: ITC, 25°C, with AMP; read-out: Kd
Sequence (P9WFV1 309-513): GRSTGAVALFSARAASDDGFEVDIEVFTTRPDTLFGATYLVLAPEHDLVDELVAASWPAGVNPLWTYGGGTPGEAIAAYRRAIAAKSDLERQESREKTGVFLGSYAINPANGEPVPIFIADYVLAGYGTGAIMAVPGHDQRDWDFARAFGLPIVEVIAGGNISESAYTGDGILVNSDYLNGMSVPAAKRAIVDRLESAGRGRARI
pKd: −log10 of the molar value.
assay metric: pKd

>>> measured_number("CCOc1cccc2c1B(O)O[C@@H]2CN")
5.43

----------
assay: in vivo; settings: mouse, i.v., 30 mg/kg
The entries below are paired with their reported α-t1/2 % AUC.
assay metric: α-t1/2 % AUC (% AUC)

>>> measured_number("CCOc1ccc(Br)c2c1B(O)O[C@@H]2CN")
5
>>> measured_number("CCOc1ccc(Cl)c2c1B(O)O[C@@H]2CN")
2
>>> measured_number("CCOc1cccc2c1B(O)O[C@@H]2CN")
5
>>> measured_number("CCOc1ccc(F)c2c1B(O)O[C@@H]2CN")
7

----------
Experiment: in vivo
Details: mouse, in vivo, po, 30 mg/kg
Experimental: Mouse pharmacokinetic studies were conducted by using female CD-1 mice for compounds 1, 11, and 12, while BALB/c mice were used for compound 13. […] Antibiotic concentrations in the plasma samples were analyzed by liquid chromatography-tandem mass spectrometry (LC-MS/MS). […] The limit of quantitation (LOQ) was 1 or 2 ng/ml. […]
The entries below are paired with their reported Cmax.
assay metric: Cmax (ng/mL)

>>> measured_number("CCOc1ccc(Br)c2c1B(O)OC2CN (centres unmarked) [Compound 11]")
7200
>>> measured_number("CCOc1ccc(F)c2c1B(O)O[C@@H]2CN [Compound 12]")
5000
>>> measured_number("CCOc1ccc(Cl)c2c1B(O)O[C@@H]2CN [Compound 13]")
6400
>>> measured_number("CCOc1cccc2c1B(O)O[C@@H]2CN [Compound 2]")
3400
>>> measured_number("CCOc1ccc(Br)c2c1B(O)O[C@@H]2CN [Compound 14]")
6300

----------
target: M. tuberculosis LeuRS (Mycobacterium tuberculosis, UniProt P9WFV1); test: biochemical; set-up: species or system M. tuberculosis H37Rv
Sequence (P9WFV1 whole entry): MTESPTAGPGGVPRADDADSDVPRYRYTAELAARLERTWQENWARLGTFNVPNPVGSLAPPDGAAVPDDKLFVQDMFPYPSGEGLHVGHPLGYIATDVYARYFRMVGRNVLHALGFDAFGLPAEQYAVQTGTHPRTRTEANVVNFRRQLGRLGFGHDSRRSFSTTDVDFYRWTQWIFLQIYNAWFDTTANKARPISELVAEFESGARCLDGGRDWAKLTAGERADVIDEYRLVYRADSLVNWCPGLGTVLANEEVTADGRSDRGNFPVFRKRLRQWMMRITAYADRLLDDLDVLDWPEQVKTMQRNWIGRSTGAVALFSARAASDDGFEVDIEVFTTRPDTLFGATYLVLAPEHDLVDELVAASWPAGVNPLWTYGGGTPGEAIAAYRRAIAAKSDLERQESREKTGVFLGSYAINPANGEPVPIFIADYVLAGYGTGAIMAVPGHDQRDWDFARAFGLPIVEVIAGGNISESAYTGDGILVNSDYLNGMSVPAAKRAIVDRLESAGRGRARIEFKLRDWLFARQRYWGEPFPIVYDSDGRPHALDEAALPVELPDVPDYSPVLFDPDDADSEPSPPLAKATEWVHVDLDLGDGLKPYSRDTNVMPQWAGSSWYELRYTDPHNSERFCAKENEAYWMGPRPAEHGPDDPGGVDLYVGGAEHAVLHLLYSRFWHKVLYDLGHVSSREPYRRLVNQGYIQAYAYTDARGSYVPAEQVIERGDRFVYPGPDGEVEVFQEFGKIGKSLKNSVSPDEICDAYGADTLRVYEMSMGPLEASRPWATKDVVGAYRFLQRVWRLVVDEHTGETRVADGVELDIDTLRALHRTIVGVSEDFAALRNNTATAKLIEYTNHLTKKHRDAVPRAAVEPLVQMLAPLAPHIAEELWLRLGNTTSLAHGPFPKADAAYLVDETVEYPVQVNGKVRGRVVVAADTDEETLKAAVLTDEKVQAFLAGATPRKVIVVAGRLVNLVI
pIC50: −log10 of the molar value.
assay metric: pIC50

>>> measured_number("CCOc1ccc(Br)c2c1B(O)O[C@@H]2CN")
7.10
>>> measured_number("CCOc1ccc(Cl)c2c1B(O)O[C@@H]2CN")
7.22
>>> measured_number("CCOc1ccc(Br)c2c1B(O)OC2CN (stereo not shown)")
6.96
>>> measured_number("CCOc1ccc(Cl)c2c1B(O)OC2CN (stereo not shown)")
7.05

----------
test: in vivo; conditions: mouse, in vivo, iv, 30 mg/kg
assay metric: AUC(0-inf) (ng·h/mL)

>>> measured_number("CCOc1cccc2c1B(O)O[C@@H]2CN")
13800
>>> measured_number("CCOc1ccc(Cl)c2c1B(O)O[C@@H]2CN")
51600
>>> measured_number("CCOc1ccc(F)c2c1B(O)O[C@@H]2CN")
26800
>>> measured_number("CCOc1ccc(Br)c2c1B(O)O[C@@H]2CN")
43700

----------
The entries below are paired with their reported half-life.
test: in vivo; details: mouse, in vivo, iv, 30 mg/kg, β-t1/2, mouse
assay metric: half-life (min)

>>> measured_number("CCOc1ccc(Br)c2c1B(O)O[C@@H]2CN [Compound 14]")
204
>>> measured_number("CCOc1ccc(F)c2c1B(O)O[C@@H]2CN [Compound 12]")
152
>>> measured_number("CCOc1cccc2c1B(O)O[C@@H]2CN [Compound 2]")
90
>>> measured_number("CCOc1ccc(Cl)c2c1B(O)O[C@@H]2CN [Compound 13]")
230

----------
test: in vivo; conditions: mouse, in vivo, po, 30 mg/kg
assay metric: bioavailability (%)

>>> measured_number("CCOc1cccc2c1B(O)O[C@@H]2CN")
96
>>> measured_number("CCOc1ccc(Cl)c2c1B(O)O[C@@H]2CN")
92
>>> measured_number("CCOc1ccc(Br)c2c1B(O)OC2CN (centres unmarked)")
39
>>> measured_number("CCOc1ccc(Br)c2c1B(O)O[C@@H]2CN")
100
>>> measured_number("CCOc1ccc(F)c2c1B(O)O[C@@H]2CN")
89

----------
assay: in vivo; conditions: mouse, in vivo, po, 30 mg/kg, Terminal t1/2, mouse
assay metric: half-life (min)

>>> measured_number("CCOc1ccc(Br)c2c1B(O)OC2CN (centres unmarked)")
162
>>> measured_number("CCOc1cccc2c1B(O)O[C@@H]2CN")
108
>>> measured_number("CCOc1ccc(F)c2c1B(O)O[C@@H]2CN")
162
>>> measured_number("CCOc1ccc(Br)c2c1B(O)O[C@@H]2CN")
216
>>> measured_number("CCOc1ccc(Cl)c2c1B(O)O[C@@H]2CN")
186

----------
The entries below are paired with their reported pEC50.
system: Vero cells; assay: In vitro cytotoxicity assay (MTT); assay type: cell-based, African green monkey; conditions: Chlorocebus sabaeus, 72 h
pEC50: −log10 of the molar value.
assay metric: pEC50

>>> result("CCOc1cccc2c1B(O)O[C@H]2CN")
"< 4.30"
>>> result("CCOc1ccc(Cl)c2c1B(O)OC2CN (centres unmarked)")
"< 4.30"
>>> result("CCOc1ccc(CC)c2c1B(O)OC2CN (centres unmarked)")
"< 4.30"
>>> result("CCOc1cc(Cl)cc2c1B(O)OC2CN (centres unmarked)")
4.37
>>> result("CCOc1cccc2c1B(O)O[C@@H]2CN")
"< 4.30"

----------
assay: in vivo; details: mouse, in vivo, iv, 30 mg/kg
The entries below are paired with their reported MRT.
assay metric: MRT (h)

>>> measured_number("CCOc1ccc(Cl)c2c1B(O)O[C@@H]2CN")
5.4
>>> measured_number("CCOc1ccc(Br)c2c1B(O)O[C@@H]2CN")
4.7
>>> measured_number("CCOc1cccc2c1B(O)O[C@@H]2CN")
2.1
>>> measured_number("CCOc1ccc(F)c2c1B(O)O[C@@H]2CN")
3.4

----------
The entries below are paired with their reported pIC50.
target: M. tuberculosis LeuRS (Mycobacterium tuberculosis, UniProt P9WFV1); assay: biochemical; parameters: species or system M. tuberculosis H37Rv; details: read-out: IC50 M.tb LeuRS
pIC50: −log10 of the molar value.
assay metric: pIC50

>>> measured_number("CCOc1cc(Cl)cc2c1B(O)OC2CN (stereo not shown)")
6.42
>>> measured_number("CCOc1ccc(-c2ccccc2)c2c1B(O)OC2CN.Cl (stereo not shown)")
4.55
>>> measured_number("CCOc1ccc(CC)c2c1B(O)OC2CN (stereo not shown)")
6.51
>>> measured_number("OB1OCc2ccccc21")
4.67
>>> measured_number("CCOc1c(F)ccc2c1B(O)OC2CN (stereo not shown)")
6.25
>>> measured_number("CCOc1cccc2c1B(O)O[C@H]2CN")
4.68
>>> measured_number("CCOc1cccc2c1B(O)OC2CN (stereo not shown)")
6.55
>>> measured_number("OCCCOc1cccc2c1B(O)OC2")
5.46
>>> measured_number("NCC1OB(O)c2ccccc21 (stereo not shown)")
6.19
>>> measured_number("CCOc1cccc2c1B(O)O[C@@H]2CN")
6.89
>>> measured_number("CCOc1ccc(F)c2c1B(O)OC2CN (stereo not shown)")
6.96
>>> measured_number("CCOc1ccc(C)c2c1B(O)OC2CN (stereo not shown)")
6.70
>>> measured_number("CCOc1ccc(F)c2c1B(O)O[C@@H]2CN")
7.10

----------
assay: in vivo; conditions: female, CD-1, mouse, in vivo, iv, 15 mg/kg
assay metric: Cmax

>>> result("CCOc1ccc(Br)c2c1B(O)OC2CN (stereo not shown)")
"18000 ng/mL"
